Target: CTSC in U937 cells (Homo sapiens (Human), UniProt P53634)
Sequence (P53634 25-463): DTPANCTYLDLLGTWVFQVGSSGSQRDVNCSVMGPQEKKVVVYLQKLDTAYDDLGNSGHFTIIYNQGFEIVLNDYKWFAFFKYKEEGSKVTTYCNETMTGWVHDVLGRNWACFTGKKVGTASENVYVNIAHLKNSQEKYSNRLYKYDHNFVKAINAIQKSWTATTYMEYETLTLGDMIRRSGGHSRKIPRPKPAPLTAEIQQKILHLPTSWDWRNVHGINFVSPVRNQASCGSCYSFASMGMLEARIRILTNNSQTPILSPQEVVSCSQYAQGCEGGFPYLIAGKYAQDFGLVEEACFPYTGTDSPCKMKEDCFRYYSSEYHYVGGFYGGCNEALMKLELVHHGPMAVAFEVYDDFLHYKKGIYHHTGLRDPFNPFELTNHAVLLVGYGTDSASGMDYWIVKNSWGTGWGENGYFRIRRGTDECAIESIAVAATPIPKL
Assay: Intracellular CTSC inhibition assay (in vitro), LLOMe-induced cell death in U937 cells
Assay type: cell-based
Settings: 3 hours culture, CellTiter-Glo
Note to self: IC50 under 7 nM means criterion met, ties and anything higher get criterion not met.

> print(dat)
                                   molecule     category.label
1  CC1(c2nc(C3(C(F)(F)F)CCN(C(=O)[C@@H]4C[C@@H](O)C5(CCC5)CN4)CC3)no2)CC(F)(F)C1      criterion met
2  CC(C)C1(c2nc(C3CC(F)(F)C3)no2)CCN(C(=O)[C@@H]2CC[C@@]3(CCO3)CN2)CC1  criterion not met
3  O=C([C@@H]1C[C@@H](O)C2(CCC2)CN1)N1CCC(c2cnc(N3CCC(F)(F)CC3)s2)CC1      criterion met
4  O=C([C@@H]1CC[C@@]2(CCO2)CN1)N1CCC(c2noc(C3CC(F)(F)C3)n2)(C(F)(F)F)CC1  criterion not met
5  O=C([C@@H]1C[C@@H](O)C2(CCC2)CN1)N1CCC(c2noc(C3CCCOC3)n2)(C(F)(F)F)CC1 (stereo partly shown)      criterion met
6  CC1(O)CC[C@@H](C(=O)N2CCC(c3noc(C4CC(F)(F)C4)n3)(C(F)(F)F)CC2)NC1 (stereo partly shown)  criterion not met
